src = patent US7041681B2

These compounds were tested on mu opioid receptor (Rattus norvegicus, UniProt P33535); pKi is the recorded read-out.
Sequence (P33535 whole entry): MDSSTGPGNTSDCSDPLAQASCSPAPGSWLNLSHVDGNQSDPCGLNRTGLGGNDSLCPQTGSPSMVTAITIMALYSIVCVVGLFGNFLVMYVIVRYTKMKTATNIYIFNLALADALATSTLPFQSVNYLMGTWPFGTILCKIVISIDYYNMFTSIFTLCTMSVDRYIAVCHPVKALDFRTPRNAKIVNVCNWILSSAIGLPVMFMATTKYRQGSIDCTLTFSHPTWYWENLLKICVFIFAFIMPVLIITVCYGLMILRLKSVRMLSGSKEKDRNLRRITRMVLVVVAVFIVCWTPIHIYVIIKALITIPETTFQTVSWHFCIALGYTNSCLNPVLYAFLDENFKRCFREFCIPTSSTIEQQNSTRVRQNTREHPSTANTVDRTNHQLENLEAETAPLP
Here pKi is given on a logarithmic scale as minus log10 of the concentration in mol/L.

[[record]]
compound = "CN[C@@H](Cc1c(C)cc(OC)cc1C)C(=O)N1CCCC[C@H]1c1nc(-c2ccccc2)c[nH]1"
measured_target = "mu opioid receptor (Rattus norvegicus, UniProt P33535)"
experimental_result = 7.37

[[record]]
compound = "NC(Cc1ccc(C(=O)O)cc1)C(=O)N1Cc2ccccc2CC1c1nc(-c2ccccc2)c[nH]1 (stereo not drawn)"
measured_target = "mu opioid receptor (Rattus norvegicus, UniProt P33535)"
experimental_result = 5.24


# input State the recorded pKi for this entry: NCc1ccc(C[C@H](N)C(=O)N2CCCC[C@H]2c2nc(-c3ccccc3)c[nH]2)cc1
# output 6.39

====

# reported pKi; entries follow
- measured-target: mu opioid receptor (Rattus norvegicus, UniProt P33535)
Lab note: report pKi as minus log10 of the concentration in molar units, number only.

[[record]]
compound = "Cc1cc(O)cc(C)c1CC(N)C(=O)N1CCCCC1c1nc(-c2ccccc2)no1 (stereo not shown)"
measured_target = "mu opioid receptor (Rattus norvegicus, UniProt P33535)"
experimental_result = 9.85

[[record]]
compound = "Cc1[nH]c([C@@H]2Cc3ccccc3CN2C(=O)[C@@H](N)Cc2ccc(N)cc2)nc1-c1ccccc1"
measured_target = "mu opioid receptor (Rattus norvegicus, UniProt P33535)"
experimental_result = 6.07

[[record]]
compound = "CCNC(=O)c1ccc(C[C@H](N)C(=O)N2CCCC[C@H]2c2nc(-c3ccccc3)c[nH]2)cc1"
measured_target = "mu opioid receptor (Rattus norvegicus, UniProt P33535)"
experimental_result = 9.82

[[record]]
compound = "COc1ccc(C[C@H](N)C(=O)N2Cc3ccccc3C[C@H]2c2nc(-c3ccccc3)c(C)[nH]2)cc1"
measured_target = "mu opioid receptor (Rattus norvegicus, UniProt P33535)"
experimental_result = 6.75

[[record]]
compound = "Nc1ccc(CC(N)C(=O)N2CCCCC2c2nc(-c3ccccc3)c[nH]2)cc1 (stereo not shown)"
measured_target = "mu opioid receptor (Rattus norvegicus, UniProt P33535)"
experimental_result = 7.24

[[record]]
compound = "CN[C@@H](Cc1c(C)cc(O)cc1C)C(=O)N1Cc2ccccc2C[C@H]1c1nc(-c2ccccc2)c[nH]1"
measured_target = "mu opioid receptor (Rattus norvegicus, UniProt P33535)"
experimental_result = 8.15

[[record]]
compound = "CN1CCN(C(=O)c2ccc(C[C@H](N)C(=O)N3CCCC[C@H]3c3nc(-c4ccccc4)c[nH]3)cc2)CC1"
measured_target = "mu opioid receptor (Rattus norvegicus, UniProt P33535)"
experimental_result = 5.00

[[record]]
compound = "N#Cc1ccc(CC(N)C(=O)N2Cc3ccccc3CC2c2nc(-c3ccccc3)c[nH]2)cc1 (stereo not shown)"
measured_target = "mu opioid receptor (Rattus norvegicus, UniProt P33535)"
experimental_result = 5.87

[[record]]
compound = "N[C@@H](Cc1cccc(O)c1)C(=O)N1Cc2ccccc2C[C@H]1c1nc(-c2ccccc2)c[nH]1"
measured_target = "mu opioid receptor (Rattus norvegicus, UniProt P33535)"
experimental_result = 6.32

[[record]]
compound = "CNC(Cc1ccc(O)cc1)C(=O)N1Cc2ccccc2CC1c1nc(-c2ccccc2)c[nH]1 (stereo not shown)"
measured_target = "mu opioid receptor (Rattus norvegicus, UniProt P33535)"
experimental_result = 7.23


# input Looking for the measured pKi of Cc1cc(O)cc(C)c1C[C@H](NC=O)C(=O)N1CCCC[C@H]1c1nc(-c2ccccc2)c[nH]1 , can you help?
# output 7.88

# input Param item: Cc1cc(O)cc(C)c1C[C@H](N)C(=O)N1Cc2ccccc2C[C@H]1c1nc(-c2ccccc2)c(Br)[nH]1
# output 9.77

# input Please answer likewise for Cc1[nH]c([C@@H]2Cc3ccccc3CN2C(=O)[C@@H](N)Cc2ccc([N+](=O)[O-])cc2)nc1-c1ccccc1
# output 5.87

# input Moving on to CCN[C@@H](Cc1ccc(O)cc1)C(=O)N1Cc2ccccc2C[C@@H]1c1nc(-c2ccccc2)c[nH]1
# output 6.64

# input Would you mind doing N#Cc1ccc(C[C@H](N)C(=O)N2CCCC[C@H]2c2nc(-c3ccccc3)c[nH]2)cc1 as well?
# output 6.06

# input Further, for CC(C)NC(Cc1ccc(O)cc1)C(=O)N1Cc2ccccc2CC1c1nc(-c2ccccc2)c[nH]1 (stereo not shown) ?
# output 5.00

====

- measured-target: mu opioid receptor (Rattus norvegicus, UniProt P33535)
Label satisfied when Ki < 600 nM; otherwise not satisfied.

Consider the worked cases shown below.
[[record]]
molecule = "NC(Cc1ccc(C(=O)NCCO)cc1)C(=O)N1Cc2ccccc2CC1c1nc(-c2ccccc2)c[nH]1 (stereo not drawn) [Cmpd 112]"
class_name = "satisfied"

[[record]]
molecule = "Cc1cc(O)cc(C)c1C[C@H](N)C(=O)N1CCCC[C@H]1c1nc(-c2ccccc2)c(C)[nH]1 [Cmpd 29]"
class_name = "satisfied"

[[record]]
molecule = "N[C@@H](Cc1ccc(Cl)cc1)C(=O)N1Cc2ccccc2C[C@H]1c1nc(-c2ccccc2)c[nH]1 [Cmpd 144]"
class_name = "not satisfied"

[[record]]
molecule = "CC(=O)Oc1cc(C)c(CC(N)C(=O)N2Cc3ccccc3CC2c2nc(-c3ccccc3)c[nH]2)c(C)c1 (stereo not drawn) [Cmpd 113]"
class_name = "satisfied"

[[record]]
molecule = "CNC(Cc1ccc(O)cc1)C(=O)N1Cc2ccccc2CC1c1nc(-c2ccccc2)c(C)[nH]1 (stereo not drawn) [Cmpd 155]"
class_name = "satisfied"

[[record]]
molecule = "CC(N)(Cc1ccc(O)cc1)C(=O)N1Cc2ccccc2CC1c1nc(-c2ccccc2)c[nH]1 (stereo not drawn) [Cmpd 121]"
class_name = "satisfied"

[[record]]
molecule = "O=C(C(Cc1ccc(O)cc1)NCc1ccccc1)N1Cc2ccccc2CC1c1nc(-c2ccccc2)c[nH]1 (stereo not drawn) [Cmpd 135]"
class_name = "not satisfied"

[[record]]
molecule = "NC(Cc1ccc(C(=O)NCCO)cc1)C(=O)N1CCCCC1c1nc(-c2ccccc2)c[nH]1 (stereo not drawn) [Cmpd 14]"
class_name = "satisfied"


# input Strictly below 600 nM in Ki? C[C@](N)(Cc1ccc(OCc2ccccc2)cc1)C(=O)N1Cc2ccccc2C[C@H]1c1nc(-c2ccccc2)c[nH]1 [Cmpd 122]
# output not satisfied

# input Try the molecule CC(=O)Nc1ccc(C[C@H](N)C(=O)N2Cc3ccccc3C[C@H]2c2nc(-c3ccccc3)c(C)[nH]2)cc1 [Cmpd 141]
# output satisfied

# input Item: N[C@@H](Cc1ccc(O)c([N+](=O)[O-])c1)C(=O)N1Cc2ccccc2C[C@H]1c1nc(-c2ccccc2)c[nH]1 [Cmpd 129]
# output not satisfied

# input Please do the same for N[C@@H](Cc1ccc(O)cc1)C(=O)N1CCCC[C@H]1c1nc(-c2ccccc2)no1 [Cmpd 20] as well.
# output satisfied

# input // same read-out, input: N[C@@H](Cc1ccc(O)cc1)C(=O)N1CCCC[C@@H]1c1cccc(-c2ccccc2)c1 [Cmpd 31]
# output satisfied

# input Also CN1CCN(C(=O)c2ccc(C[C@H](N)C(=O)N3Cc4ccccc4C[C@H]3c3nc(-c4ccccc4)c[nH]3)cc2)CC1 [Cmpd 102] , if possible.
# output not satisfied

# input For NC(=O)c1ccc(CC(N)C(=O)N2Cc3ccccc3CC2c2nc(-c3ccccc3)c[nH]2)cc1 (stereo not drawn) [Cmpd 115] then?
# output satisfied

====

- measured-target: delta opioid receptor (Rattus norvegicus, UniProt P33533)
- Sequence (P33533 whole entry): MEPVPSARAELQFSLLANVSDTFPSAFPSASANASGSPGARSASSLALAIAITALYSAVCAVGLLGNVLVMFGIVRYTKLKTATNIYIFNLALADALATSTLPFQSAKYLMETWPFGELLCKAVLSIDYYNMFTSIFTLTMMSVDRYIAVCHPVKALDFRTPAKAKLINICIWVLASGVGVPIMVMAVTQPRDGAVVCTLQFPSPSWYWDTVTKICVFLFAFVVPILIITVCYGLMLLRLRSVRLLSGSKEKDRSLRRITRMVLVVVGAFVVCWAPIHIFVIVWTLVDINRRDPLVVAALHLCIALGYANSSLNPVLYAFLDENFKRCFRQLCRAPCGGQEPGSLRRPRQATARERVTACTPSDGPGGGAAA
- protocol-description: Rat Brain Delta Opioid Receptor Binding Assay
- condition-parameters: rat forebrain membranes, ~4 nM [3H]DPDPE, 25° C., 2.5 h; read-out: δ-opioid binding (Ki)
Entries and their Ki values follow.
Answer in nM, number only, no unit symbol.

# input What does the data say about its Ki? Entry: CNC(=O)c1ccc(C[C@H](N)C(=O)N2Cc3ccccc3C[C@H]2c2nc(-c3ccccc3)c[nH]2)cc1 [Cmpd 117]
# output 1.61

# input Request: N#Cc1cccc(C[C@H](N)C(=O)N2CCCC[C@H]2c2nc(-c3ccccc3)c[nH]2)c1 [Cmpd 8]
# output 10000

# input Next entry: NC(Cc1ccc(C(=O)NCCO)cc1)C(=O)N1Cc2ccccc2CC1c1nc(-c2ccccc2)c[nH]1 (stereo not shown) [Cmpd 112]
# output 43.7

# input N[C@@H](Cc1ccc(O)c([N+](=O)[O-])c1)C(=O)N1CCCC[C@H]1c1nc(-c2ccccc2)c[nH]1 [Cmpd 17] , same question.
# output 5120

====

- measured-target: delta opioid receptor (Rattus norvegicus)
- protocol-description: Rat Brain Delta Opioid Receptor Binding Assay
- condition-parameters: rat forebrain membranes, ~4 nM [3H]DPDPE, 25° C., 2.5 h; read-out: δ-opioid binding (Ki)
measure-name: pKi
By convention, pKi is the negative base-10 log of a molar concentration.

Worked examples follow.
[[record]]
compound = "Cc1cc(O)cc(C)c1CC(N)C(=O)N1CCCCC1c1nc(-c2ccccc2)no1 (stereo not shown)"
measured_target = "delta opioid receptor (Rattus norvegicus)"
measure_name = "pKi"
experimental_result = 7.33

[[record]]
compound = "CC(N)(Cc1ccc(O)cc1)C(=O)N1CCCCC1c1nc(-c2ccccc2)c[nH]1 (stereo not shown)"
measured_target = "delta opioid receptor (Rattus norvegicus)"
measure_name = "pKi"
experimental_result = 6.97

[[record]]
compound = "CN[C@@H](Cc1c(C)cc(OC)cc1C)C(=O)N1CCCC[C@H]1c1nc(-c2ccccc2)c[nH]1"
measured_target = "delta opioid receptor (Rattus norvegicus)"
measure_name = "pKi"
experimental_result = 6.56

[[record]]
compound = "Cc1[nH]c([C@@H]2Cc3ccccc3CN2C(=O)[C@@H](N)Cc2ccc(F)cc2)nc1-c1ccccc1"
measured_target = "delta opioid receptor (Rattus norvegicus)"
measure_name = "pKi"
experimental_result = 6.16


# input Param readout = pKi; param system = delta opioid receptor (Rattus norvegicus); param query = N[C@@H](Cc1ccc(C(=O)Nc2ccccc2)cc1)C(=O)N1Cc2ccccc2C[C@H]1c1nc(-c2ccccc2)c[nH]1 ; response: value
# output 6.99

# input Request: CN[C@@H](Cc1ccc(OC(=O)C(C)(C)C)cc1)C(=O)N1Cc2ccccc2C[C@H]1c1nc(-c2ccccc2)c[nH]1
# output 8.28

# input Can you check CNC(=O)c1ccc(C[C@H](N)C(=O)N2CCCC[C@H]2c2nc(-c3ccccc3)c[nH]2)cc1 next?
# output 7.47
